- Target Under Test: human enzyme NAMPT (full length) (Homo sapiens)
- Construct: human enzyme NAMPT (full length)
- Sequence (P43490 whole entry): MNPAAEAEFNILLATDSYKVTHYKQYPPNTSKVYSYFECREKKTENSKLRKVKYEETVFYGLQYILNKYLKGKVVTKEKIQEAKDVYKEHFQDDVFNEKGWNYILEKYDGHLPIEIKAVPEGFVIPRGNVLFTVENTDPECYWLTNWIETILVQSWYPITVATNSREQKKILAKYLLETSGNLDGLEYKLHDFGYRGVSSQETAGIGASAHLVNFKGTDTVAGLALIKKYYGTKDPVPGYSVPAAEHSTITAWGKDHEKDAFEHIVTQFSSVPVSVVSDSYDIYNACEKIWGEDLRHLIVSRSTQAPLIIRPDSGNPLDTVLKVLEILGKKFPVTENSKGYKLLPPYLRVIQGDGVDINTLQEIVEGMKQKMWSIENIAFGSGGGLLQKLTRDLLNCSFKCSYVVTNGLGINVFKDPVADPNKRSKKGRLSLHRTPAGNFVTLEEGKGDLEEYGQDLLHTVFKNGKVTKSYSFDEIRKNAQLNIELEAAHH
- Test Protocol: NMN fluorescence biochemical assay (stimulation of NMN synthesis by NAMPT)
- Applied Conditions: NMN fluorescence assay, purified human NAMPT 100 nM; concentration giving half-maximal activation; read-out: Enzymatic EC50
pEC50: −log10 of the molar value.
Property Name: pEC50

Q. Consider the compound shown here: Cn1ncc(Cl)c1CC1c2ccccc2CCN1CC1CC2(CNC(=O)O2)C1 (stereo not shown) What is its recorded pEC50?
A. ≤ 5.30

Q. Please answer likewise for Cn1ncc(Cl)c1CC1c2ccccc2C(=O)N1Cc1ccc(F)cc1 (stereo not shown)
A. ≤ 5.30

Q. Please answer likewise for COc1ccc(CN2C(=O)c3ccccc3C2Cc2ncccc2Br)cn1 (stereo not shown)
A. 5.30 to 6.30

Q. Please answer likewise for O=C1c2ccccc2C(Cc2ncccc2Br)N1[C@H]1C[C@H](c2c[nH]nn2)C1 (stereo partly shown)
A. ≤ 5.30
